PROCEDURE_DETAILS: amyloid nucleation score (Sup35N fusion, yeast selection) (log enrichment); library NNK2; higher = more nucleation; inactive = no reads after selection;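 also: zero at mode of non-aggregating sequences after 7 days selection at 30°C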
Bucketed by reported amyloid nucleation score, buckets being bin 0: < -0.1; bin 1: ≥ -0.1 and < 0.9; bin 2: ≥ 0.9

Exercise: Hello team, could you let me know which band the following substance falls into: ITSHVDAAVEFPNVSFSHGV
Key: bin 2

Exercise: Hello team, could you let me know which band the following substance falls into: SMYVDVFLRFGSWLHSFT
Key: bin 0

Exercise: Hello team, could you let me know which band the following substance falls into: SCNQDYTDSLSRAELKVDSS
Key: bin 0

Exercise: Hello team, could you let me know which band the following substance falls into: SRGSYIPSPLRHSFSVLWRF
Key: bin 0

Exercise: Hello team, could you let me know which band the following substance falls into: NILRATTFCVDHLYSSFFCT
Key: bin 2

Exercise: Hello team, could you let me know which band the following substance falls into: RTSAPVLRYSVCLNAKYSLG
Key: bin 1

Exercise: Hello team, could you let me know which band the following substance falls into: KYVWSVEGKVAVAGVAMSCA
Key: bin 1

Exercise: Hello team, could you let me know which band the following substance falls into: FICYNTRRVVCIYLRL
Key: bin 1

Exercise: Hello team, could you let me know which band the following substance falls into: PLVTCHDDEVQGMKFVSFFI
Key: bin 0

Exercise: Hello team, could you let me know which band the following substance falls into: LLGLSGKYWIRGSKNSIFVW
Key: bin 1

Exercise: Hello team, could you let me know which band the following substance falls into: FQDDDDPFFCVFAYFIGFFA
Key: bin 0

Exercise: Hello team, could you let me know which band the following substance falls into: LLNDFRQLNTRYDSRWGQWQ
Key: bin 2

Exercise: Hello team, could you let me know which band the following substance falls into: IFDRNSYFKEHFVMIGLEGR
Key: bin 1

Exercise: Hello team, could you let me know which band the following substance falls into: ARRVQRKSIPTFVSSAMMSD
Key: bin 0

Exercise: Hello team, could you let me know which band the following substance falls into: TIGTVMNSLSHFLRPAR
Key: bin 2

Exercise: Hello team, could you let me know which band the following substance falls into: FGESTSEGYA
Key: bin 2

----------
PROCEDURE_DETAILS: amyloid nucleation score (Sup35N fusion, yeast selection) (log enrichment); library NNK3; higher = more nucleation; inactive = no reads after selection
METRIC: amyloid nucleation score

Exercise: Fill in the blank: the reported amyloid nucleation score of ALKVYADMIDYLWLRTFMSW is ____.
Key: inactive

Exercise: Fill in the blank: the reported amyloid nucleation score of SSGFSKSKYYICVLQFVGVV is ____.
Key: inactive

Exercise: Fill in the blank: the reported amyloid nucleation score of PLLLHVST is ____.
Key: inactive

Exercise: Fill in the blank: the reported amyloid nucleation score of LAIVRRCWNLRYAGYEI is ____.
Key: inactive

Exercise: Fill in the blank: the reported amyloid nucleation score of SRVDPLLRNWDCRFSSLLL is ____.
Key: 0.935

Exercise: Fill in the blank: the reported amyloid nucleation score of SYSLPMQKRCCIGIGEAGWN is ____.
Key: -0.354

Exercise: Fill in the blank: the reported amyloid nucleation score of ILQYRYKGWNRKGYHQQPVI is ____.
Key: inactive

Exercise: Fill in the blank: the reported amyloid nucleation score of FLTFRPSLSTRHLFLMESHT is ____.
Key: inactive

# input for lookup
Exercise: Fill in the blank: the reported amyloid nucleation score of MASIVFFCMPSETNFVV is ____.
Key: inactive

Value source: the supplement of paper PMC12042874
